- tested target: T1, human mutCALR on BaF3 cells stably expressing human MPL and human mutCALR (MPL-mutCALR cells) (human)
- T1 construct: also called mutant calreticulin
- T1 chain: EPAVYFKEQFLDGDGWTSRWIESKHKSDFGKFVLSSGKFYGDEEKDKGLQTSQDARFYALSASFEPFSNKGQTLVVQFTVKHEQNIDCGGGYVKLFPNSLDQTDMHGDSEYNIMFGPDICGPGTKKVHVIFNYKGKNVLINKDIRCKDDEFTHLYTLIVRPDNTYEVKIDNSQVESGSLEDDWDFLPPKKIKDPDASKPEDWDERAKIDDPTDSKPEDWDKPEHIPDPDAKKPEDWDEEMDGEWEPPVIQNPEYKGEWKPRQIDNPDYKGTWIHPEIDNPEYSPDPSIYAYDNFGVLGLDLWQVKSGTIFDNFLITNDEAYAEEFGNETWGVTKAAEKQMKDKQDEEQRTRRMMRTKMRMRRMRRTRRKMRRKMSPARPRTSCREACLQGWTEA
- protocol summary: flow cytometry, BaF3 MPL-mutCALR cells
measured endpoint: log10 of EC50 (log10 of the value in µg/mL)
Lab note - EC50 converted to log10 from values in µg/mL.

Prompt: State its log10 of EC50 for this binder: anti-mutCALR antibody clone 53 (antibody, human IgG1, lambda, V domains shown, human IgG1) VH: QVQLVQSGAEVKKPGASVKVSCKVSGYTLTELSMHWVRQAPGKGLEWMGGFDPEDGETIYAQKFQGRVTMTEDTSTDTAYMELSSLRSEDTAVYYCATDIQGLAEFDYWGQGTLVTVSS VL: QSALTQPRSVSGSPGQSVTISCTGTNTDVGAYIDVSWYQQHPGKAPKLIIYDVSKWPSGVPDRFSGSKSGNTASLTISGLQAEDEADYYCCSYAGNHSFSFGGGTKVTVLG
Response: -1.70

Prompt: State its log10 of EC50 for this binder: anti-mutCALR antibody clone 142 (antibody, human IgG1, lambda, N297A, V domains shown) VH: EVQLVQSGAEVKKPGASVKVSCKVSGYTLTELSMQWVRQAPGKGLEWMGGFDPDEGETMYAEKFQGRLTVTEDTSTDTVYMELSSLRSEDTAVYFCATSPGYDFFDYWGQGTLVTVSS VL: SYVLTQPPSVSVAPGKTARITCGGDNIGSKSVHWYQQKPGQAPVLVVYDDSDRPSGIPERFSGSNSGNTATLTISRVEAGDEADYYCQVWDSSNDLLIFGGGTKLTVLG
Response: -2.64

Prompt: State its log10 of EC50 for this binder: anti-mutCALR antibody clone 25 (antibody, human IgG1, lambda, V domains shown, human IgG1) VH: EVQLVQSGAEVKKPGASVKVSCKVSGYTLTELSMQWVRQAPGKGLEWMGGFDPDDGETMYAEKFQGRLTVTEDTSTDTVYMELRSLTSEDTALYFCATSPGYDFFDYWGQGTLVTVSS VL: SYELTQPPSVAVAPGQTARITCGGNNIGRKAVHWYQQKPGQAPVLVVYDDSDRPSGIPERFSGSNSGNTATLTINRVEAGDEADYYCQVWDSSNDLLIFGGGTKLTVLG
Response: 1.89

Prompt: State its log10 of EC50 for this binder: anti-mutCALR antibody clone 24 (antibody, human IgG1, lambda, V domains shown, human IgG1) VH: EVQLVQSGAEVKKPGASVKVSCKVSGYTLTELSMQWVRQAPGKGLEWMGGFDPDDGETMYAEKLQGRLTVTEDTSTDTVYMELRSLTSEDTALYFCATSPGYDFFDYWGQGTLVTVSS VL: SYVLTQPPSVSVAPGKTARITCGGNNIGSKSVHWYQQKPGQAPVLVVYDDSDRPSGIPERFSGSNSGNTATLTINRVEAGDEADYYCQVWDSSNDLLIFGGGTKLTVLG
Response: 1.47

Prompt: State its log10 of EC50 for this binder: anti-mutCALR antibody clone 21 (antibody, human IgG1, lambda, V domains shown, human IgG1) VH: EVQLVQSGAEVKKPGASVKVSCEVSGYTLTELSMQWVRQAPGKGLEWMGGFDPDDGETMYAEKFQGRLTVTEDTSTDTVYMELRSLTSEDTALYFCATSPGYDFFDYWGQGTLVTVSS VL: SYVLTQPPSVSVAPGQTARVSCGGNNIGSKSVNWYRQKPGQAPVLVIYDDSDRPSGIPERFSGSNSGNTATLTISRVEAGDEADYYCQVWDSSNDLLIFGGGTKLTVLG
Response: -0.15

Prompt: State its log10 of EC50 for this binder: anti-mutCALR antibody clone 178 (antibody, human IgG1, lambda, N297A, V domains shown) VH: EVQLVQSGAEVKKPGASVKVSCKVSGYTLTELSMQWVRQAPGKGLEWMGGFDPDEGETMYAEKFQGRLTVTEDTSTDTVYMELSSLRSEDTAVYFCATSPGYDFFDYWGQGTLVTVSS VL: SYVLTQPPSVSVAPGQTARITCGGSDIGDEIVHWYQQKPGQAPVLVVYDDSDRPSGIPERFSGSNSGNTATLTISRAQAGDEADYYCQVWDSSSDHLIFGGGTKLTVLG
Response: -2.39

Prompt: State its log10 of EC50 for this binder: anti-mutCALR antibody clone 184 (antibody, human IgG1, lambda, N297A, V domains shown) VH: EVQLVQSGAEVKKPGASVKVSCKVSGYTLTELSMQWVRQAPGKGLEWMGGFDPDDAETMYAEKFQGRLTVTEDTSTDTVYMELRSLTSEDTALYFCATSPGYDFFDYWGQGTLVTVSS VL: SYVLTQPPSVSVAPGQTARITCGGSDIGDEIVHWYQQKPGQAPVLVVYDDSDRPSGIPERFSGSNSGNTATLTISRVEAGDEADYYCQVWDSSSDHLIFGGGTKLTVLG
Response: -2.20

Prompt: State its log10 of EC50 for this binder: anti-mutCALR antibody clone 70 (antibody, human IgG1, lambda, N297A, V domains shown) VH: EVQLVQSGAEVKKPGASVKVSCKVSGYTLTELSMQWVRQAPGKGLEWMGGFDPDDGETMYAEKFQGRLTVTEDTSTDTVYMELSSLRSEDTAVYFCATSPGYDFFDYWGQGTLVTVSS VL: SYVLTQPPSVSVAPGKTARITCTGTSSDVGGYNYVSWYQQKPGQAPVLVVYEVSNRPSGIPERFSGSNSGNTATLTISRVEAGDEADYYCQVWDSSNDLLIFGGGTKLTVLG
Response: -2.72

Prompt: State its log10 of EC50 for this binder: anti-mutCALR antibody clone 33 (antibody, human IgG1, lambda, V domains shown, human IgG1) VH: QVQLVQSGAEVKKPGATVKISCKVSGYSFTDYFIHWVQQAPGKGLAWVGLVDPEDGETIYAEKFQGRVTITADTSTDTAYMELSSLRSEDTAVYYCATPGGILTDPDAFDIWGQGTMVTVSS VL: QSALTQPRSVSGSPGQSVTISCAGTGSDVGGYNHVSWYQHHPGKAPKLMIYDVNKRPSGVPDRFSGSKSGNTASLTISGLQAEDEADYYCSSYIPSSTRWVFGGGTKLTVLG
Response: -0.82

Prompt: State its log10 of EC50 for this binder: anti-mutCALR antibody clone 131 (antibody, human IgG1, lambda, N297A, V domains shown) VH: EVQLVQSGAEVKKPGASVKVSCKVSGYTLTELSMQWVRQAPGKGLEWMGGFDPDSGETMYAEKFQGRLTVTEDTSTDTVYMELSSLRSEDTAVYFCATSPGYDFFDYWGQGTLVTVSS VL: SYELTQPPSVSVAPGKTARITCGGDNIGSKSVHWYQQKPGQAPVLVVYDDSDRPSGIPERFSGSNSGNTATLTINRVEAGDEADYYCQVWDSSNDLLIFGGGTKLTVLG
Response: -2.96
